Target: DDR1 (human)
Observation Type: pKi
Scale for pKi: -log10 of concentration given in mol/L; no unit attached.

For the compound `COc1cc2nccc(Oc3ccc(NC(=O)Nc4cc(C)on4)c(Cl)c3)c2cc1OC` , what pKi is on record? 7.28

###

Target: CHUK (human)
Assay: Caliper, Mobility shift assay off-chip
Settings: compound 0.2 µM
// reported inhibition per item
Your answer is read as %, so omit the unit and give the number.

Smiles Code: CCN(CC)CCNC(=O)c1c(C)[nH]c(/C=C2\C(=O)Nc3ccc(F)cc32)c1C
Unit Descriptor: %
inhibition: 3
//
Smiles Code: Cc1ccc(Nc2nccc(N(C)c3ccc4c(C)n(C)nc4c3)n2)cc1S(N)(=O)=O
Unit Descriptor: %
inhibition: 0.9
//
Smiles Code: COc1cc2c(Oc3ccc4[nH]c(C)cc4c3F)ncnc2cc1OCCCN1CCCC1
Unit Descriptor: %
inhibition: 5.3

Now for another entry.
Request - read-out inhibition | tested on CHUK (human) | compound `CNC(=O)c1cc(Oc2ccc(NC(=O)Nc3ccc(Cl)c(C(F)(F)F)c3)cc2)ccn1` 1

###

Target: PASK (human) (UniProt Q96RG2)
Sequence (Q96RG2 whole entry, looked up): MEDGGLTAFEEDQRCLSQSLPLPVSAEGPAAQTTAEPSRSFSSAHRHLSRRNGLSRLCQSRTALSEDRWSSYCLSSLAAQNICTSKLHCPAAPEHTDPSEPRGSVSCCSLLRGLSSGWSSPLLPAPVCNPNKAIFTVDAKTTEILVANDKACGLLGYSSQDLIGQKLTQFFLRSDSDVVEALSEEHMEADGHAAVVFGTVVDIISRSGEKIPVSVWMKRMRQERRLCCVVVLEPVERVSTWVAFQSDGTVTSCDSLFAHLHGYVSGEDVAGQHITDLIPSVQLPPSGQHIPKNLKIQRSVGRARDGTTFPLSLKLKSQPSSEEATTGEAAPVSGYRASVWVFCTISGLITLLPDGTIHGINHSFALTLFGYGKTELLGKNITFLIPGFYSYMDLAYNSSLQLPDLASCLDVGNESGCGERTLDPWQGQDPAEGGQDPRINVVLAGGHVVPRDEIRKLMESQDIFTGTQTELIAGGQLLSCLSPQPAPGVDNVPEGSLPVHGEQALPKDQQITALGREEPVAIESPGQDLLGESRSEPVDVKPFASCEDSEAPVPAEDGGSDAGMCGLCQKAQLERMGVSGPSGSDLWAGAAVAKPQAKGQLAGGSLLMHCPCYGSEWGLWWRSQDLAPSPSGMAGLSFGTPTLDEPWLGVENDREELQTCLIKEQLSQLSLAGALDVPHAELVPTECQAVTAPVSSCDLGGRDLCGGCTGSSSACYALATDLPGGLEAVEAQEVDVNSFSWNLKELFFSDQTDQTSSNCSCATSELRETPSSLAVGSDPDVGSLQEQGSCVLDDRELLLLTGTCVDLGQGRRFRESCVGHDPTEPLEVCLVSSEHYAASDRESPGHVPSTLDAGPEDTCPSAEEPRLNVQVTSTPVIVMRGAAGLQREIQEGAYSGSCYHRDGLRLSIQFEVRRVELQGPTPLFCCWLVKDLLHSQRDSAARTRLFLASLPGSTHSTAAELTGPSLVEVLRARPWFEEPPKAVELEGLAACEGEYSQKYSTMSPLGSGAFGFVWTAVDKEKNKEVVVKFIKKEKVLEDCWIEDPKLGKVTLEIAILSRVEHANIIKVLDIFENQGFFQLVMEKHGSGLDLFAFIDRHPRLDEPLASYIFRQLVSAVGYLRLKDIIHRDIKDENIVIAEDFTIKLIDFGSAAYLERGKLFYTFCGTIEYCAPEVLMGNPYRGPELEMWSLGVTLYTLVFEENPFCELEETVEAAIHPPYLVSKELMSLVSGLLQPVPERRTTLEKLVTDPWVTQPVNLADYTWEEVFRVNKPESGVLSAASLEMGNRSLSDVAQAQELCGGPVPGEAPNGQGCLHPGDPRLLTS
Test: Caliper, Mobility shift assay off-chip
Conditions: compound 0.02 µM
Observation Type: inhibition (%)
Your answer is read as %, so omit the unit and give the number.

Would you please look over these solved cases?
Smiles Code: Cc1ccc(Nc2nccc(N(C)c3ccc4c(C)n(C)nc4c3)n2)cc1S(N)(=O)=O
inhibition (%): -0.6
--
Smiles Code: CNC(=O)c1ccccc1Sc1ccc2c(/C=C/c3ccccn3)n[nH]c2c1
inhibition (%): -0.6
--
Smiles Code: COc1cc2c(Oc3ccc4[nH]c(C)cc4c3F)ncnc2cc1OCCCN1CCCC1
inhibition (%): -4.3

Now for another entry.
For the molecule `CNC(=O)c1cc(Oc2ccc(NC(=O)Nc3ccc(Cl)c(C(F)(F)F)c3)cc2)ccn1` , what inhibition is on record? -1

###

Target: TNK2 (human)
Experiment: Caliper, Mobility shift assay off-chip
Conditions: compound 0.2 µM
Observation Type: inhibition

For the compound `CNC(=O)c1cc(Oc2ccc(NC(=O)Nc3ccc(Cl)c(C(F)(F)F)c3)cc2)ccn1` , what inhibition is on record? -3.2%

###

Target: PRKCG (human)
Assay: Caliper, Mobility shift assay off-chip
Conditions: compound 0.2 µM
// reported inhibition per item
Your answer is read as %, so omit the unit and give the number.

Would you please look over these solved cases?
Smiles Code: CCN(CC)CCNC(=O)c1c(C)[nH]c(/C=C2\C(=O)Nc3ccc(F)cc32)c1C
Unit Descriptor: %
inhibition: 0.1

Smiles Code: CNC(=O)c1cc(Oc2ccc(NC(=O)Nc3ccc(Cl)c(C(F)(F)F)c3)cc2)ccn1
Unit Descriptor: %
inhibition: 16.8

Smiles Code: COc1cc2c(Oc3ccc4[nH]c(C)cc4c3F)ncnc2cc1OCCCN1CCCC1
Unit Descriptor: %
inhibition: 4.1

Now for another entry.
For the compound `Cc1ccc(Nc2nccc(N(C)c3ccc4c(C)n(C)nc4c3)n2)cc1S(N)(=O)=O` , what inhibition is on record? -6.3

###

Target: PHKG1 (human)
Assay: Caliper, Mobility shift assay off-chip
Details: compound 0.2 µM
// reported inhibition per item

Would you please look over these solved cases?
Smiles Code: Cc1ccc(Nc2nccc(N(C)c3ccc4c(C)n(C)nc4c3)n2)cc1S(N)(=O)=O
Val: -1.9%
--
Smiles Code: CNC(=O)c1cc(Oc2ccc(NC(=O)Nc3ccc(Cl)c(C(F)(F)F)c3)cc2)ccn1
Val: -2%
--
Smiles Code: CCN(CC)CCNC(=O)c1c(C)[nH]c(/C=C2\C(=O)Nc3ccc(F)cc32)c1C
Val: 91.8%

Request - read-out inhibition | tested on PHKG1 (human) | molecule `COc1cc2c(Oc3ccc4[nH]c(C)cc4c3F)ncnc2cc1OCCCN1CCCC1` -3.5%

###

// reported inhibition per item
Molecular target: ITK (human)
Assay: Caliper, Mobility shift assay off-chip
Details: compound 0.2 µM
Your answer is read as %, so omit the unit and give the number.

Smiles Code: CNC(=O)c1cc(Oc2ccc(NC(=O)Nc3ccc(Cl)c(C(F)(F)F)c3)cc2)ccn1
inhibition (%): 7.5

Request - read-out inhibition | tested on ITK (human) | compound `CCN(CC)CCNC(=O)c1c(C)[nH]c(/C=C2\C(=O)Nc3ccc(F)cc32)c1C` 93.3

Request - read-out inhibition | tested on ITK (human) | compound `Cc1ccc(Nc2nccc(N(C)c3ccc4c(C)n(C)nc4c3)n2)cc1S(N)(=O)=O` 2

Request - read-out inhibition | tested on ITK (human) | compound `COc1cc2c(Oc3ccc4[nH]c(C)cc4c3F)ncnc2cc1OCCCN1CCCC1` 5.5

###

Biological target: RPS6KB1 (human) (UniProt P23443)
Sequence (P23443 whole entry, looked up): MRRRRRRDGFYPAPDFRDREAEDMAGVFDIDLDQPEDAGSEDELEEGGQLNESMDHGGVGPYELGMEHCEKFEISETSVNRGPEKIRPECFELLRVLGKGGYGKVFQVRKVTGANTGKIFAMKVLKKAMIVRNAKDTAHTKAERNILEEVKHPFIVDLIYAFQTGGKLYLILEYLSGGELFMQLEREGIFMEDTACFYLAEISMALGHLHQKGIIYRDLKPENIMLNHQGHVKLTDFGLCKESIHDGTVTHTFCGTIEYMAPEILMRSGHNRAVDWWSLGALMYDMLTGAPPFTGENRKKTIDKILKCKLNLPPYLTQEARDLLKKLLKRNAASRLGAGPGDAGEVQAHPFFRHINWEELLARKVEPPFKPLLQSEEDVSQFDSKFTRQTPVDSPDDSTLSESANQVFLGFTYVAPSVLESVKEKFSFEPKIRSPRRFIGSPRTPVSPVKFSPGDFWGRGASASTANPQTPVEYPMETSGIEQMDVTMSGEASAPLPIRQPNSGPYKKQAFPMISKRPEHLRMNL
Assay: Caliper, Mobility shift assay off-chip
Conditions: compound 0.2 µM
Observation Type: inhibition
Answer with the number, then the unit.

Smiles Code: CNC(=O)c1cc(Oc2ccc(NC(=O)Nc3ccc(Cl)c(C(F)(F)F)c3)cc2)ccn1
Observation Type: inhibition
Val: 48.1%
//
Smiles Code: COc1cc2c(Oc3ccc4[nH]c(C)cc4c3F)ncnc2cc1OCCCN1CCCC1
Observation Type: inhibition
Val: 8.6%
//
Smiles Code: CCN(CC)CCNC(=O)c1c(C)[nH]c(/C=C2\C(=O)Nc3ccc(F)cc32)c1C
Observation Type: inhibition
Val: 66.4%

Now for another entry.
For the compound `Cc1ccc(Nc2nccc(N(C)c3ccc4c(C)n(C)nc4c3)n2)cc1S(N)(=O)=O` , what inhibition is on record? 20.6%

###

Target: FER (human) (UniProt P16591)
Sequence (P16591 whole entry, looked up): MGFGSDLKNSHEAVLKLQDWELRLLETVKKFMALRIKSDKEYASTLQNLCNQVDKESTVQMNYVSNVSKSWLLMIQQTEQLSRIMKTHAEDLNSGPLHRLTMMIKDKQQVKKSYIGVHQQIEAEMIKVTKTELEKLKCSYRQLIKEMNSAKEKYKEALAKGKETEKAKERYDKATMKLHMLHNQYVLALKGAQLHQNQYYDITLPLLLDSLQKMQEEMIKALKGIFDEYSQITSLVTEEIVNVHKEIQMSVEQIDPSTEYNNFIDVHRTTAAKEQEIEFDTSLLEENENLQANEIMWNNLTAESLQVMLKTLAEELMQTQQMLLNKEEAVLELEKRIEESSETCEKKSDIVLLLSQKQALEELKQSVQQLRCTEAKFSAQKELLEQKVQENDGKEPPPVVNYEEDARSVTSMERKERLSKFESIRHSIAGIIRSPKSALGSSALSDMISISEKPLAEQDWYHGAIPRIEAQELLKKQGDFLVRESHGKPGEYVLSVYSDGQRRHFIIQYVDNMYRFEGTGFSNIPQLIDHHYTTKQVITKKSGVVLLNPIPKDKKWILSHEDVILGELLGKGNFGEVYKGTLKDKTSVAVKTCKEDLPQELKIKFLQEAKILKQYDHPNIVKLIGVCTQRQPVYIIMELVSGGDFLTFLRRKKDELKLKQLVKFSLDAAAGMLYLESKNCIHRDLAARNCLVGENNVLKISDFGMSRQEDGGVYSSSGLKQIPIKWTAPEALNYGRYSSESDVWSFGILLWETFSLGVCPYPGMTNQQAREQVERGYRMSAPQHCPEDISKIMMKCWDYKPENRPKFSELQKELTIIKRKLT
Experiment: Caliper, Mobility shift assay off-chip
Conditions: compound 0.02 µM
Observation Type: inhibition
Answer with the number, then the unit.

Smiles Code: COc1cc2c(Oc3ccc4[nH]c(C)cc4c3F)ncnc2cc1OCCCN1CCCC1
Val: 8.7%
--
Smiles Code: CNC(=O)c1cc(Oc2ccc(NC(=O)Nc3ccc(Cl)c(C(F)(F)F)c3)cc2)ccn1
Val: -1.8%
--
Smiles Code: CNC(=O)c1ccccc1Sc1ccc2c(/C=C/c3ccccn3)n[nH]c2c1
Val: 3.9%

Now for another entry.
Request - read-out inhibition | tested on FER (human) (UniProt P16591) | compound `Cc1ccc(Nc2nccc(N(C)c3ccc4c(C)n(C)nc4c3)n2)cc1S(N)(=O)=O` 15.1%

###

Target: MAP3K5 (human)
Test: ELISA
Settings: compound 0.02 µM
// reported inhibition per item
Your answer is read as %, so omit the unit and give the number.

Smiles Code: Cc1ccc(Nc2nccc(N(C)c3ccc4c(C)n(C)nc4c3)n2)cc1S(N)(=O)=O
Unit Descriptor: %
inhibition: 1.9

Smiles Code: CNC(=O)c1cc(Oc2ccc(NC(=O)Nc3ccc(Cl)c(C(F)(F)F)c3)cc2)ccn1
Unit Descriptor: %
inhibition: 9.6

Smiles Code: COc1cc2c(Oc3ccc4[nH]c(C)cc4c3F)ncnc2cc1OCCCN1CCCC1
Unit Descriptor: %
inhibition: 8.7

For the compound `CNC(=O)c1ccccc1Sc1ccc2c(/C=C/c3ccccn3)n[nH]c2c1` , what inhibition is on record? -2.8

###

Molecular target: CHEK2 (human) (UniProt O96017)
Sequence (O96017 whole entry, looked up): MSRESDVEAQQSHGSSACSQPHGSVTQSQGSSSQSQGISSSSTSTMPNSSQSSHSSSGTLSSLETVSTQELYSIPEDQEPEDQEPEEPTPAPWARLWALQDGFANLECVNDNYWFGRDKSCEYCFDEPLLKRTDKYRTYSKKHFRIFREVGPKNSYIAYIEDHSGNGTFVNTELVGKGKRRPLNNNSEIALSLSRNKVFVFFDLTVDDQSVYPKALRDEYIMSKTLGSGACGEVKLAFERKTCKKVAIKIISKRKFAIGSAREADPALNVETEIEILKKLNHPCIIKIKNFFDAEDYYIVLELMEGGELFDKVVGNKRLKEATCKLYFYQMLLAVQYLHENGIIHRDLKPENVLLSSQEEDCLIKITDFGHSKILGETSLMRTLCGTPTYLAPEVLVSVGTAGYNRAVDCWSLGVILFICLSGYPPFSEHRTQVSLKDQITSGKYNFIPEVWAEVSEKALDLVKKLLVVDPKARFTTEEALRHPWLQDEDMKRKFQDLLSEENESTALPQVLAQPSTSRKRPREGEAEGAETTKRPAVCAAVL
Experiment: Caliper, Mobility shift assay off-chip
Conditions: compound 0.2 µM
// reported inhibition per item
Your answer is read as %, so omit the unit and give the number.

Would you please look over these solved cases?
Smiles Code: CNC(=O)c1cc(Oc2ccc(NC(=O)Nc3ccc(Cl)c(C(F)(F)F)c3)cc2)ccn1
Unit Descriptor: %
Val: 2.2
--
Smiles Code: CCN(CC)CCNC(=O)c1c(C)[nH]c(/C=C2\C(=O)Nc3ccc(F)cc32)c1C
Unit Descriptor: %
Val: 78.8
--
Smiles Code: Cc1ccc(Nc2nccc(N(C)c3ccc4c(C)n(C)nc4c3)n2)cc1S(N)(=O)=O
Unit Descriptor: %
Val: 4.1

For the compound `COc1cc2c(Oc3ccc4[nH]c(C)cc4c3F)ncnc2cc1OCCCN1CCCC1` , what inhibition is on record? 3.6

###

Molecular target: PRKX (human)
Experiment: Caliper, Mobility shift assay off-chip
Details: compound 0.2 µM
Observation Type: inhibition (%)
Your answer is read as %, so omit the unit and give the number.

Would you please look over these solved cases?
Smiles Code: Cc1ccc(Nc2nccc(N(C)c3ccc4c(C)n(C)nc4c3)n2)cc1S(N)(=O)=O
Observation Type: inhibition
Val: 0.8

Smiles Code: CNC(=O)c1cc(Oc2ccc(NC(=O)Nc3ccc(Cl)c(C(F)(F)F)c3)cc2)ccn1
Observation Type: inhibition
Val: 0.2

Smiles Code: CCN(CC)CCNC(=O)c1c(C)[nH]c(/C=C2\C(=O)Nc3ccc(F)cc32)c1C
Observation Type: inhibition
Val: 7.7

Now for another entry.
For the compound `COc1cc2c(Oc3ccc4[nH]c(C)cc4c3F)ncnc2cc1OCCCN1CCCC1` , what inhibition is on record? -0.9

###

Molecular target: TEC (human) (UniProt P42680)
Sequence (P42680 whole entry, looked up): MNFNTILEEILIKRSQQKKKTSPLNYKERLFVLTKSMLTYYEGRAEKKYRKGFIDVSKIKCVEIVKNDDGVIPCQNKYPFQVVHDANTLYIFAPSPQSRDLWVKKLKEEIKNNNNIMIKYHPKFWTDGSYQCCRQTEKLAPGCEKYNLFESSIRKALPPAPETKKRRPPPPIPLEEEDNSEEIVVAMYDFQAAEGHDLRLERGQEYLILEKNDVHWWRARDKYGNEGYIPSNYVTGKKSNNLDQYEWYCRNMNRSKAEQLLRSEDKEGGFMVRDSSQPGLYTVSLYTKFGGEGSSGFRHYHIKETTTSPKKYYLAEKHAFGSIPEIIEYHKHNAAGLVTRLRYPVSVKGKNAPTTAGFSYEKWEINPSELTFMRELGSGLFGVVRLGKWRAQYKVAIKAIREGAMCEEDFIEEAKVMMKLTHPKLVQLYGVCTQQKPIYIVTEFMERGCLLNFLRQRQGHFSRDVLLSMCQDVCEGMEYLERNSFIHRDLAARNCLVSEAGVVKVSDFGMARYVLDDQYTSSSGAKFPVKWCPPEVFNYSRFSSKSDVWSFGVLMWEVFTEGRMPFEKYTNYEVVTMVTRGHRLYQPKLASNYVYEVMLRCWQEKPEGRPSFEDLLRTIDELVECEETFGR
Assay: Caliper, Mobility shift assay off-chip
Settings: compound 0.2 µM
Observation Type: inhibition (%)
Your answer is read as %, so omit the unit and give the number.

Smiles Code: CNC(=O)c1cc(Oc2ccc(NC(=O)Nc3ccc(Cl)c(C(F)(F)F)c3)cc2)ccn1
Observation Type: inhibition
Unit Descriptor: %
Val: 9.4

For the molecule `COc1cc2c(Oc3ccc4[nH]c(C)cc4c3F)ncnc2cc1OCCCN1CCCC1` , what inhibition is on record? 5.3

For the molecule `CCN(CC)CCNC(=O)c1c(C)[nH]c(/C=C2\C(=O)Nc3ccc(F)cc32)c1C` , what inhibition is on record? 7.6

For the molecule `Cc1ccc(Nc2nccc(N(C)c3ccc4c(C)n(C)nc4c3)n2)cc1S(N)(=O)=O` , what inhibition is on record? 19.7
